Data provenance: patent US11661431B2

Molecular target: TLR8 (Homo sapiens (Human), UniProt Q9NR97)
Sequence (Q9NR97 27-1041): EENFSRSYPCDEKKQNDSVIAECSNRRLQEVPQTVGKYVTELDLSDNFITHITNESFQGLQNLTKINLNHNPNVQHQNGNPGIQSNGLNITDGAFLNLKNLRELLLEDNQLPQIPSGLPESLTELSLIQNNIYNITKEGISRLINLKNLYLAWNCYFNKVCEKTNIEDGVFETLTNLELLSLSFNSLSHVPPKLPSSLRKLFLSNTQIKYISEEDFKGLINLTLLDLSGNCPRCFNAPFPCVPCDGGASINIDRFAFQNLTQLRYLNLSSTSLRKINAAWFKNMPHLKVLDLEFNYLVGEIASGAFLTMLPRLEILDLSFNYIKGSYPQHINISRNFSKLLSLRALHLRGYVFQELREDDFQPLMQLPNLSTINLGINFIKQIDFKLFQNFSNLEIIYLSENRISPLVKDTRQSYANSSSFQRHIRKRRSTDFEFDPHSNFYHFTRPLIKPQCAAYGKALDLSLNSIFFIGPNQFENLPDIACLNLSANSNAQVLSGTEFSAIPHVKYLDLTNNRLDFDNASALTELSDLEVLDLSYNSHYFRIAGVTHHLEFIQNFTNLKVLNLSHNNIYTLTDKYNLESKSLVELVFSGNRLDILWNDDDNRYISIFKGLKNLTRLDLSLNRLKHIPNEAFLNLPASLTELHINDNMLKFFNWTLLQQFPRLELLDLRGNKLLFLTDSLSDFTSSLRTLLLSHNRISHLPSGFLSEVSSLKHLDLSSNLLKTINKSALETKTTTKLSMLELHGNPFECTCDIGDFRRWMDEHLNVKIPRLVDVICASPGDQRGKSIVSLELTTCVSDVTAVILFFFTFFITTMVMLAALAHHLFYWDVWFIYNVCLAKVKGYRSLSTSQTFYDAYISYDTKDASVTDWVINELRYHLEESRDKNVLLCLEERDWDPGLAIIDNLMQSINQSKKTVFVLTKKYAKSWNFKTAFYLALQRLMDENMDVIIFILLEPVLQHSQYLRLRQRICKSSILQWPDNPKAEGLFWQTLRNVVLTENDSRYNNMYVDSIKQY
Experiment: TLR8 human peripheral blood mononuclear cell (PBMC) cell-based assay (Compound A as agonist; TNFα and IL12p40 readout)
Conditions: human PBMCs, TLR8 agonist Compound A at 800 nM, 6 hours, antagonist potency; read-out: TLR-8 EC50
valueKind: EC50 (nM)

Example cases with answers are listed next.
Cc1c(-c2[nH]c3sc([C@@H]4C[C@@H]5C[C@H]4CN5CC(=O)N(C)CCO)c(C)c3c2C(C)C)cn2ncnc2c1C [Example 266]
0.33
Cc1c(-c2[nH]c3sc(-c4ccc(C5CCN(CC(N)=O)CC5)cc4)c(C)c3c2C(C)C)cn2ncnc2c1C [Example 113]
9.8

(P) Cc1c(-c2[nH]c3sc(C4CC(c5nnc([C@H]6COCCN6)o5)C4)c(C)c3c2C(C)C)cn2ncnc2c1C (single isomer, unassigned) [Example 241]
(Q) Cc1c(C2CCNCC2)sc2[nH]c(-c3cc(C)c4ncnn4c3)c(C(C)C)c12 [Example 8]
Which gives the smaller EC50 number: P or Q ? Answer with the label corresponding to your selection. Q
(Q: 4.92 nM, P: 30.7 nM)
